This collection of values is drawn from patent US20250320305A1.

- target.entity: T1, human CD40 extracellular domain with C-terminal His-AviTag (human, UniProt P25942 21-193)
- T1 construct: not shown: C-terminal His-AviTag
- assay.details: SPR, antibody captured, CD40 ECD analyte;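 also: biacore SPR at 25 °C in PBS-T pH 7.4, CD40 ECD analyte from 300 nM in 1:3 series, 300 s association, up to 1200 s dissociation, double-referenced, Langmuir 1:1 fit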
parameter.measured: pKd
pKd is defined as minus the log10 of a concentration measured in mol/L.

Below are worked cases with known answers.
1) P1AE0405, humanized anti-CD40 antibody VH2b/VL2b, huIgG1_LALA_PG (antibody, V domains shown, huIgG1 with effector silent Fc (P329G, L234A, L235A); also called VL2b/VH2b) VH: EVQLLESGGGLVQPGGSLRLSCAASGYSFTGYYIHWVRQAPGKSLEWVGRVIPNAGGTSYNQKFKGRFTISVDNSKNTAYLQMNSLRAEDTAVYYCAREGIYWWGQGTTVTVSS VL: DIQMTQSPSSLSASVGDRVTITCRSSQSLVHSNGNTFLHWYQQKPGQSPKLLIYTVSNRFSGVPSRFSGSGSGTDFTLTISSLQPEDFATYFCSQTTHVPWTFGGGTKVEIK | 8.29
2) P1AE0993, humanized anti-CD40 antibody VH1a/VL1c, huIgG1_LALA_PG (antibody, V domains shown, huIgG1 with effector silent Fc (P329G, L234A, L235A)) VH: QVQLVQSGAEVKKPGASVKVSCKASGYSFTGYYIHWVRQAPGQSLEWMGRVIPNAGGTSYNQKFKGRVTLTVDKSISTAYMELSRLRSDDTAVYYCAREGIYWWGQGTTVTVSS VL: DVVVTQTPLSLSVTPGQPASISCRSSQSLVHSNGNTFLHWYLQKPGQSPQLLIYTVSNRFSGVPDRFSGSGSGTDFTLKISRVEAEDVGVYFCSQTTHVPWTFGGGTKVEIK | 8.47
3) P1AE0407, humanized anti-CD40 antibody VH2d/VL2b, huIgG1_LALA_PG (antibody, V domains shown, huIgG1 with effector silent Fc (P329G, L234A, L235A); also called VL2b/VH2d) VH: EVQLLESGGGLVQPGGSLRLSCAASGYSFTGYYIHWVRQAPGKGLEWVGRVIPNAGGTSYGDSVKGRFTISVDNSKNTAYLQMNSLRAEDTAVYYCAREGIYWWGQGTTVTVSS VL: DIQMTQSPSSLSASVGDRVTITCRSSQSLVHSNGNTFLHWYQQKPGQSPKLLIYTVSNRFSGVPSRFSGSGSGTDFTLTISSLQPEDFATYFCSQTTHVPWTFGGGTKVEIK | 7.52
4) P1AE0403, humanized anti-CD40 antibody VH2d/VL2a, huIgG1_LALA_PG (antibody, V domains shown, also called VL2a/VH2d) VH: EVQLLESGGGLVQPGGSLRLSCAASGYSFTGYYIHWVRQAPGKGLEWVGRVIPNAGGTSYGDSVKGRFTISVDNSKNTAYLQMNSLRAEDTAVYYCAREGIYWWGQGTTVTVSS VL: DIQMTQSPSSLSASVGDRVTITCRSSQSLVHSNGNTFLHWYQQKPGKAPKLLIYTVSNRFSGVPSRFSGSGSGTDFTLTISSLQPEDFATYFCSQTTHVPWTFGGGTKVEIKR | 7.54

Let us move to another entry and its pKd.
Kindly indicate its recorded pKd. Item: P1AE1007, humanized anti-CD40 antibody VH1d/VL1b, huIgG1_LALA_PG (antibody, V domains shown, huIgG1 with effector silent Fc (P329G, L234A, L235A)) VH: QVQLVQSGAEVKKPGASVKVSCKASGYSFTGYYIHWVRQAPGQSLEWMGRVIPNAGGTSYNQKFKGRVTLSVDKSISTAYMELSRLRSDDTAVYYCAREGIYWWGQGTTVTVSS VL: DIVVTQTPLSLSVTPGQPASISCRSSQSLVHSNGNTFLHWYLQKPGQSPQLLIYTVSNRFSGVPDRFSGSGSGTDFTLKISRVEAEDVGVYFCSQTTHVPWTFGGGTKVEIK
8.57
